Target: human CB1 receptor (Homo sapiens)
Construct: host or cells: CHO-K1
Assay: CB1 radioligand competitive binding assay ([3H]CP 55,940 displacement)
Details: fold difference in binding affinity, CB1 over CB2; 1.00 = about the same affinity for both receptors
Please go through the items and note down their Selectivity CB1.
All answers are understood in fold, so give the number only.

Request: Enter Selectivity CB1 (test system human CB1 receptor (Homo sapiens)) for C=C(C)[C@@H]1CCC(C)=C[C@H]1c1c(O)cc(CCCCC)c(-c2c(C)noc2C)c1O [Compound 36d]
Result: 2.22

Request: Recall the reported Selectivity CB1 of "C=C(C)[C@@H]1CCC(C)=C[C@H]1c1c(O)cc(CCCCC)c(-c2nnn[nH]2)c1O" when tested on human CB1 receptor (Homo sapiens).
Result: 1.00

Request: // fetch Selectivity CB1; item: C=C(C)[C@@H]1CCC(C)=C[C@H]1c1c(O)cc(CCCCC)c(-c2ccnn2C)c1O [Compound 33d] ; system: human CB1 receptor (Homo sapiens)
Result: 1.00

Request: System human CB1 receptor (Homo sapiens). Read-out Selectivity CB1. Item C=C(C)[C@@H]1CCC(C)=C[C@H]1c1c(O)cc(CCCCC)c(-c2ccncc2)c1O [Compound 14d] . Report value.
Result: 1.00

* * *

Molecular target: UniProt:P34972
pIC50: −log10 of the molar value.
Please provide measured pIC50 for the entries that follow.

Request: Provide pIC50 value for the following compound: CCCCCc1cc(O)c(C2C=C(C)CCC2)c(O)c1-c1cncnc1 (centres unmarked) [Compound 13c]
Result: 5.30 to 6.00

Request: Check the records and state pIC50 for CCCCCc1cc(O)c(C2C=C(C)CCC2)c(O)c1-c1ccsc1 (centres unmarked) [Compound 17c]
Result: 5.30 to 6.00

Request: Quick one: give measured pIC50 for C=C(C)[C@@H]1CCC(C)=C[C@H]1c1c(O)cc(CCCCC)c(-c2ccsc2)c1O [Compound 17d]
Result: > 6.30

Request: Give reported pIC50 value for C=C(C)[C@@H]1CCC(C)=C[C@H]1c1c(O)cc(CCCCC)c(-c2ccco2)c1O [Compound 15d]
Result: 5.30 to 6.00

Request: Let me know recorded pIC50 for "C=C(C)[C@@H]1CCC(C)=C[C@H]1c1c(O)cc(CCCCC)c(-c2nnn[nH]2)c1O" , thanks.
Result: 5.30 to 6.00

Request: Answer with reported pIC50 of CCCCCc1cc(O)c(C2C=C(C)CCC2)c(O)c1-c1cccs1 (centres unmarked) [Compound 16c]
Result: 6.00 to 6.30

Request: Output pIC50 of C=C(C)[C@@H]1CCC(C)=C[C@H]1c1c(O)cc(CCCCC)c(-c2cccs2)c1O [Compound 16d]
Result: > 6.30

Request: Please look at this compound and report its pIC50: C=C(C)[C@@H]1CCC(C)=C[C@H]1c1c(O)cc(CCCCC)c(-c2cc3ccccc3s2)c1O [Compound 34d]
Result: > 6.30

* * *

Target: human CB1 receptor (Homo sapiens, UniProt P21554)
Construct: host or cells: CHO-K1
Sequence (P21554 whole entry): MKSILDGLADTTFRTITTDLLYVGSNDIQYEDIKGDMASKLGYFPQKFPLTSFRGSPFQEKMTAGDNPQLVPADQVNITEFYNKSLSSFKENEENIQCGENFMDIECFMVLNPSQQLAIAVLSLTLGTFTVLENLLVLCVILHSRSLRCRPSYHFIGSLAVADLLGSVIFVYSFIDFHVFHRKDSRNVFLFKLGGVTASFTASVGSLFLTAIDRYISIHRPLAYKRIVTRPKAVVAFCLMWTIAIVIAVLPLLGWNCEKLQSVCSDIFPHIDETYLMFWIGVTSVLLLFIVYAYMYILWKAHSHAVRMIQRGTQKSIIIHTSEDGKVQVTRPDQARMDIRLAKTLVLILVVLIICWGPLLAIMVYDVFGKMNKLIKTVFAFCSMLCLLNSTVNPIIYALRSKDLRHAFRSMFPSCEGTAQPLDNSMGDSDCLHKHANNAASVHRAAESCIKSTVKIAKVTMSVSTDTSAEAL
Test: PathHunter β-arrestin functional assay, CB1 receptor, antagonist mode
Type: cell-based
Measured Endpoint: IC50

Request: Consider the compound C=C(C)[C@@H]1CCC(C)=C[C@H]1c1c(O)cc(CCCCC)c(-c2ccsc2)c1O [Compound 17d] and give its recorded IC50.
Result: 1000 to 3000 nM

* * *

Molecular target: human CB2 receptor (Homo sapiens)
Construct: host or cells: CHO-K1
Sequence (P34972 whole entry): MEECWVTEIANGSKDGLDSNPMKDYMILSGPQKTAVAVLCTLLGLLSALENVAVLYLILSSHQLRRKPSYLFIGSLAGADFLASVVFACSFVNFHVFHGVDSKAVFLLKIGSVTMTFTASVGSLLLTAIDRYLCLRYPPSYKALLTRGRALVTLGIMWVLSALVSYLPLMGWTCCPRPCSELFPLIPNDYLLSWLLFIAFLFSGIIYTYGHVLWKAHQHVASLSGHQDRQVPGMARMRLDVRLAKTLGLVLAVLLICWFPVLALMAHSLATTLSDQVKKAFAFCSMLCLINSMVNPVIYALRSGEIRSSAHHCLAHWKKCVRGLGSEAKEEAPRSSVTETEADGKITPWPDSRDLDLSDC
Test: CB2 radioligand competitive binding assay ([3H]CP 55,940 displacement)
Conditions: fold difference in binding affinity, CB2 over CB1; 1.00 = about the same affinity for both receptors
Binary call on Selectivity CB2: y from 2 fold upward, n beneath that.

Request: I'd appreciate it if you could say whether C=C(C)[C@@H]1CCC(C)=C[C@H]1c1c(O)cc(CCCCC)c(-c2ccnn2C)c1O [Compound 33d] has Selectivity CB2 at least equal to 2 fold.
Result: n

Request: Please tell me: is the compound C=C(C)[C@@H]1CCC(C)=C[C@H]1c1c(O)cc(CCCCC)c(-c2cccnc2)c1O [Compound 12d] at or over 2 fold in terms of Selectivity CB2?
Result: n

Request: Could you verify whether the entry C=C(C)[C@@H]1CCC(C)=C[C@H]1c1c(O)cc(CCCCC)c(-c2ccnc(C)c2)c1O [Compound 35d] shows Selectivity CB2 of no less than 2 fold?
Result: n

Request: Can C=C(C)[C@@H]1CCC(C)=C[C@H]1c1c(O)cc(CCCCC)c(-c2cc3ccccc3s2)c1O [Compound 34d] be said to have Selectivity CB2 at or above 2 fold?
Result: y

Request: # bool: Selectivity CB2 of CCCCCc1cc(O)c(C2C=C(C)CCC2)c(O)c1-c1cccs1 (stereo not shown) [Compound 16c] >= 2 fold
Result: y

Request: Check the entry C=C(C)[C@@H]1CCC(C)=C[C@H]1c1c(O)cc(CCCCC)c(-c2ccsc2)c1O [Compound 17d] : does Selectivity CB2 equal or exceed 2 fold?
Result: y

Request: I'd appreciate it if you could say whether C=C(C)[C@@H]1CCC(C)=C[C@H]1c1c(O)cc(CCCCC)c(-c2ccco2)c1O [Compound 15d] has Selectivity CB2 at least equal to 2 fold.
Result: y

Request: Exam item: decide whether the reported Selectivity CB2 for C=C(C)[C@@H]1CCC(C)=C[C@H]1c1c(O)cc(CCCCC)c(-c2cn[nH]c2)c1O [Compound 41d] is at least 2 fold.
Result: n

Request: Dear colleague, could you confirm whether CCCCCc1cc(OC)c(C2C=C(C)CCC2)c(OC)c1-c1cccc(N2CCOCC2)c1 (stereo not shown) [Compound 38c] has Selectivity CB2 at or above 2 fold?
Result: y

Request: Selectivity CB2 >= 2 fold for C=C(C)[C@@H]1CCC(C)=C[C@H]1c1c(O)cc(CCCCC)c(-c2ccncc2)c1O [Compound 14d] ?
Result: n

Request: Does the compound "C=C(C)[C@@H]1CCC(C)=C[C@H]1c1c(O)cc(CCCCC)c(-c2nnn[nH]2)c1O" have recorded Selectivity CB2 that is 2 fold or more?
Result: n

Request: Decide: Selectivity CB2 of CCCCCc1cc(O)c(C2C=C(C)CCC2)c(O)c1-c1cccnc1 (stereo not shown) [Compound 12c] >= 2 fold?
Result: y

Request: Check this compound for Selectivity CB2 at or above 2 fold: C=C(C)[C@@H]1CCC(C)=C[C@H]1c1c(O)cc(CCCCC)c(-c2cncnc2)c1O [Compound 13d]
Result: y

Request: Identify whether the reported Selectivity CB2 of the following compound is 2 fold or greater: CCCCCc1cc(OC)c(C2C=C(C)CCC2)c(OC)c1-c1ccccc1 (stereo not shown) [Compound 40c]
Result: n

Request: API: above_or_equal(metric=Selectivity CB2, cutoff=2 fold) for item CCCCCc1cc(OC)c(C2C=C(C)CCC2)c(OC)c1-c1cccnc1 (stereo not shown) [Compound 39c]
Result: n

Request: Quick check: does C=C(C)[C@@H]1CCC(C)=C[C@H]1c1c(O)cc(CCCCC)c(-c2cccs2)c1O [Compound 16d] have Selectivity CB2 greater than or equal to 2 fold?
Result: y

* * *

Target: human CB2 receptor (Homo sapiens)
Construct: host or cells: CHO-K1
Experiment: CB2 radioligand competitive binding assay ([3H]CP 55,940 displacement)
Provide the reported IC50 of each item.

Request: Identify measured IC50 obtained with human CB2 receptor (Homo sapiens) for C=C(C)[C@@H]1CCC(C)=C[C@H]1c1c(O)cc(CCCCC)c(-c2cccnc2)c1O [Compound 12d] .
Result: 1 to 4.99 µM

Request: Look up and report IC50, with human CB2 receptor (Homo sapiens) as system, for C=C(C)[C@@H]1CCC(C)=C[C@H]1c1c(O)cc(CCCCC)c(-c2cncnc2)c1O [Compound 13d]
Result: 1 to 4.99 µM

Request: Lab note: record IC50 of CCCCCc1cc(OC)c(C2C=C(C)CCC2)c(OC)c1-c1cccnc1 (stereo not shown) [Compound 39c] tested on human CB2 receptor (Homo sapiens).
Result: > 5 µM

Request: Using human CB2 receptor (Homo sapiens) as the test system, report measured IC50 of CCCCCc1cc(OC)c(C2C=C(C)CCC2)c(OC)c1-c1cccc(N2CCOCC2)c1 (stereo not shown) [Compound 38c] .
Result: < 0.5 µM

* * *

Biological target: human CB1 receptor (Homo sapiens)
Construct: host or cells: CHO-K1
Assay: CB1 radioligand competitive binding assay ([3H]CP 55,940 displacement)
Could you please report measured IC50 for the items listed next?

Request: Note down IC50 recorded for C=C(C)[C@@H]1CCC(C)=C[C@H]1c1c(O)cc(CCCCC)c(-c2cn[nH]c2)c1O [Compound 41d]
Result: 1 to 4.99 µM

Request: Identify IC50 associated with the compound CCCCCc1cc(O)c(C2C=C(C)CCC2)c(O)c1-c1cccnc1 (centres unmarked) [Compound 12c]
Result: > 5 µM

Request: Specify IC50 for CCCCCc1cc(OC)c(C2C=C(C)CCC2)c(OC)c1-c1cccnc1 (centres unmarked) [Compound 39c] and stop.
Result: > 5 µM

Request: Respond only with IC50 recorded for CCCCCc1cc(O)c(C2C=C(C)CCC2)c(O)c1-c1nnn[nH]1 (centres unmarked) [Compound 3c]
Result: 1 to 4.99 µM

Request: Input C=C(C)[C@@H]1CCC(C)=C[C@H]1c1c(O)cc(CCCCC)c(-c2cccs2)c1O [Compound 16d] , output reported IC50.
Result: 1 to 4.99 µM

Request: Entry C=C(C)[C@@H]1CCC(C)=C[C@H]1c1c(O)cc(CCCCC)c(-c2cccnc2)c1O [Compound 12d] needs its IC50 filled in; supply it.
Result: 1 to 4.99 µM

Request: Annotate the compound CCCCCc1cc(OC)c(C2C=C(C)CCC2)c(OC)c1-c1ccccc1 (centres unmarked) [Compound 40c] with its measured IC50.
Result: > 5 µM

Request: For the compound C=C(C)[C@@H]1CCC(C)=C[C@H]1c1c(O)cc(CCCCC)c(-c2ccncc2)c1O [Compound 14d] , give its reported IC50.
Result: 1 to 4.99 µM

Request: For the compound C=C(C)[C@@H]1CCC(C)=C[C@H]1c1c(O)cc(CCCCC)c(-c2ccsc2)c1O [Compound 17d] , give its reported IC50.
Result: 1 to 4.99 µM

Request: Provide measured IC50 value, entry: CCCCCc1cc(O)c(C2C=C(C)CCC2)c(O)c1-c1ccsc1 (centres unmarked) [Compound 17c]
Result: 1 to 4.99 µM

Request: Report IC50, nothing else, for this compound: C=C(C)[C@@H]1CCC(C)=C[C@H]1c1c(O)cc(CCCCC)c(-c2c(C)noc2C)c1O [Compound 36d]
Result: 1 to 4.99 µM

Request: Indicate the recorded IC50 value for this compound: C=C(C)[C@@H]1CCC(C)=C[C@H]1c1c(O)cc(CCCCC)c(-c2cc3ccccc3s2)c1O [Compound 34d]
Result: 1 to 4.99 µM

Request: Give the value of IC50 reported for the following: C=C(C)[C@@H]1CCC(C)=C[C@H]1c1c(O)cc(CCCCC)c(-c2ccnc(C)c2)c1O [Compound 35d]
Result: 1 to 4.99 µM

Request: Output IC50 of CCCCCc1cc(OC)c(C2C=C(C)CCC2)c(OC)c1-c1cccc(N2CCOCC2)c1 (centres unmarked) [Compound 38c]
Result: < 0.5 µM

Request: Tell me its IC50 given C=C(C)[C@@H]1CCC(C)=C[C@H]1c1c(O)cc(CCCCC)c(-c2ccnn2C)c1O [Compound 33d] as the entry.
Result: 1 to 4.99 µM

Request: Tell me IC50 reported for CCCCCc1cc(O)c(C2C=C(C)CCC2)c(O)c1-c1cccs1 (centres unmarked) [Compound 16c]
Result: 1 to 4.99 µM

Request: Fill in reported IC50 for this entry: C=C(C)[C@@H]1CCC(C)=C[C@H]1c1c(O)cc(CCCCC)c(-c2cncnc2)c1O [Compound 13d]
Result: 1 to 4.99 µM
